// reported koff for each item listed
Target: T1, recombinant His-tagged cynomolgus PD-1 (Acro Biosystems) (cynomolgus, UniProt B0LAJ3 25-170)
T1 construct: His-tagged; also called Cyno PD-1; not shown: His tag (and any linker) of the Acro Biosystems product
T1 sequence (B0LAJ3 entry or part of it limits assumed): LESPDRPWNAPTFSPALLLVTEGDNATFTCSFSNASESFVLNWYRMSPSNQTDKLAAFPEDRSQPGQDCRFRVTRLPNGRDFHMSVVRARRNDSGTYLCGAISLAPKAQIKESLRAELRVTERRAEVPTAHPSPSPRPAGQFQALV
Assay: SPR Carterra LSA;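 also: antibodies or fusion proteins amine-coupled on an HC30M chip, soluble His-tagged human or cynomolgus PD-1 titrated over them, non-regenerative kinetics, constants fitted from titration curves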
The reply should contain only the number, in s⁻¹.

Task item: Which koff is listed for OMC.1.D6-hIgG4 (antibody, V domains shown) VH: EVQLLESGGGLVQPGGSLRLSCAASGFTFSDYYMSWVRQAPGKGLEWVSAISSSGGTIFYADSVKGRFIISRDNSKNTLYLQMNSLRAEDTAVYYCAKHKWNDVYYDAMDVWGQGTTVTVSS VL: QSVLTQPPSASGTPGQRVTISCSGSNSNIGRNLVNWYQQLPGTAPKLLIYTVDQRPSGVPDRFSGSKSGTSASLAISGLASEDEADYYCAAWDSSLNSWVFGGGTKLTVLG ?
Reply: 0.04

Task item: Which koff is listed for A2-hIgG4 (antibody, V domains shown) VH: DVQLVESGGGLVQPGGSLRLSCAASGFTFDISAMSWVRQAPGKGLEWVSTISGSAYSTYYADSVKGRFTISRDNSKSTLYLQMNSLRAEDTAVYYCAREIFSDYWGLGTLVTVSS VL: QSVLTQPPSASGTPGQRVTISCSGSTSNIGRESVYWYQQLPGTAPKLLIYSNVQRPSGAPNRFSGSKSGTSASLAISGLQSEDEADYYCGTWDDSLNGWVFGGGTKLTVLG ?
Reply: 0.04

Task item: Which koff is listed for D12-hIgG4 (antibody, V domains shown) VH: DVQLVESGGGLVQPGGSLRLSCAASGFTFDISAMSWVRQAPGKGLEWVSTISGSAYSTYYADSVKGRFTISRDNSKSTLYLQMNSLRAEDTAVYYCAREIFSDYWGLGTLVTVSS VL: QSVLTQPPSASGTPGQRVTISCSGNTSNIGRESVYWYQQLPGTAPKLLIYSNVQRPSGVPDRFSGSKSGTSASLAISGLQSEDEADYYCGTWDDSLNGWVFGGGTKLTVLG ?
Reply: 0.016

Task item: Which koff is listed for Abz1mod-hIgG4 (antibody, V domains shown) VH: QVQLVQSGSELKKPGASVKVSCKASGYTFTSYAMHWVRQAPGQGLEWMGYISPFTGRATYAQGFTGRFVFSLDTSVSTAYLQISSLKAEDTAVYYCARDYDYRYYYAMDYWGQGTTVTVSS VL: EIVLTQSPDFQSVTPKEKVTITCRASQSIPPQFLHWYQQKPDQSPKLLIKAASQRASGVPSRFSGSGSGTDFTLTINSLEAEDAATYYCHQFHSSPLTFGGGTKLEIKR ?
Reply: 0.00062

Task item: Which koff is listed for Anti-PD-1 clone J110 hIgG1 (antibody, V domains shown) VH: DVQLQESGPGLVKPSQSLSLTCTVTGHSITSDYAWNWIRQFPGDKLEWMGYISYSGYTTYNPSLKSRVSITRDTSKNQFFLQLNSVTTEDTATYFCARDLDYGPWFAYWGQGTLVTVSA VL: DIQMTQSPASLSASVGETVTLTCRASENIHNYLAWYQQKQGKSPQLLVYNVKTLADGVPSRFSGSGSGTQYSLKINSLQPEDFGSYYCQHFWSSPWTFGGGTKVEIKR ?
Reply: 0.05
